system: XIP peptide (Xip251-270) binding; test: small-molecule binders of XIP peptide, primary screen, biochemical, small-molecule microarray, fluorescence 635/667 nm, 0.1 µg/mL protein (AID 1182); details: fluorescent protein binding, 635 nm, higher = more signal, called active from +8 up or from −8 down
Recorded composite z-score split into classes bottom bin: < -0.04; middle bin: ≥ -0.04 and < 0.9; top bin: ≥ 0.9

CCOC(=O)CCN1C(=O)[C@H]2[C@H]3[C@H](O)[C@H](O)CC(=NNC(=O)OCC)[C@@H]3CC[C@H]2C1=O = middle bin
CO[C@H]1COC(=O)[C@H](C)NC(=O)CC=C[C@@H](C)[C@H](OC)COC(=O)CC=C[C@@H]1C = middle bin
CC(C)=CCCC(C)=CCON=C1C[C@@H](O)[C@@H](O)[C@@H]2[C@@H]3C(=O)N([C@@H](C)c4ccccc4)C(=O)[C@@H]3CC[C@H]12 = top bin
Cc1ccc(S(=O)(=O)N[C@H]2COC(=O)[C@@H](C)COC(=O)[C@H](C)NC(=O)CC=C[C@H]2C)cc1 = middle bin
C[C@@H]1CC[C@H]2C(=O)N3[C@@H](CC[C@@H](C)[C@@H]3c3ccc(-c4ccco4)cc3)C(=O)N2[C@H]1c1ccc(-c2ccco2)cc1 = top bin
CO[C@@H]1COC(=O)CC=C[C@H](C)COC(=O)[C@H](C)NC(=O)CC=C[C@H]1C = bottom bin
O=C1[C@H]2[C@H]3[C@H](O)[C@H](O)CC(=NOCc4ccccc4)[C@H]3CC[C@H]2C(=O)N1Cc1ccccc1 = bottom bin
O=C(NN=C1C[C@@H](O)[C@@H](O)[C@@H]2[C@@H]3C(=O)N(Cc4ccc5c(c4)OCO5)C(=O)[C@@H]3CC[C@H]12)OCc1ccccc1 = top bin
CCOC(=O)[C@H](Cc1ccccc1)NC(=O)CCC1CC(OC(=O)NCc2cccc3ccccc23)CC2(CCCC(COC(=O)NCCCN3CCCC3=O)O2)O1 (stereo not given in full) = middle bin
CCN1C(=O)[C@H]2[C@H]3[C@H](O)[C@H](O)CC(=NOC)[C@@H]3CC[C@H]2C1=O = bottom bin
C[C@@H](ON=C1[C@H]2CCn3c(=O)n(-c4ccccc4)c(=O)n3[C@H]2[C@H](O)[C@@H]2O[C@H]12)c1cn([C@H](CO)Cc2ccccc2)nn1 = middle bin
CCOC(=O)[C@H](CC(C)C)NC(=O)CCC1CC(OC(=O)NCc2cccc3ccccc23)CC2(CCCC(COC(=O)NCc3ccccc3)O2)O1 (stereo not given in full) = bottom bin
CO[C@H]1COC(=O)CC=C[C@@H](C)COC(=O)[C@@H](OCc2ccccc2)C=C[C@@H]1C = bottom bin
C=C(C)C(=O)OC[C@@H]1CN2[C@@H](CC[C@@H](C)[C@@H]2c2ccc(Br)cc2)C(=O)O1 = middle bin
CC(=O)OC[C@H]1O[C@H](C#CC(C)(C)C)C=C[C@@H]1OC(C)=O = middle bin
